As shown below, each of these compounds has a reported Activity value.
test system: Pyricularia oryzae; experiment: Antifungal activity against Magnaporthe oryzae infected on compound treated rice seedlings at 500 ppm incubated for 24 hr in moist chamber followed by incubation for 5 days in greenhouse conditions; format: functional

# compound, targetUnderTest, Activity (%)
records = [
    ("CCSC1=NS(=O)(=O)c2ccccc2N1C", "Pyricularia oryzae", 90),
    ("CCN(CC)/C(=N\\S(=O)(=O)c1ccc(C)cc1)C1CCCCC1", "Pyricularia oryzae", 30),
    ("CCCCCCCCC/C(=N/S(=O)(=O)c1ccc(C)cc1)N(CC)CC", "Pyricularia oryzae", 50),
    ("CCCCC/C(=N/S(=O)(=O)c1ccc(C)cc1)N(CC)CC", "Pyricularia oryzae", 90),
    ("CS/C(=N/S(=O)(=O)c1ccc(C)cc1)N(C)C", "Pyricularia oryzae", 30),
    ("CCCCCC/C(=N/S(=O)(=O)c1ccc(C)cc1)N(CC)CC", "Pyricularia oryzae", 97),
    ("CO/C(=N/S(=O)(=O)c1ccc(C)cc1)N(C)C", "Pyricularia oryzae", 0),
    ("C/C=C/C(=N/S(=O)(=O)c1ccc(C)cc1)N(C)C", "Pyricularia oryzae", 30),
    ("Cc1ccc(S(=O)(=O)N=C(N(C)C)N(C)C)cc1", "Pyricularia oryzae", 30),
    ("CCN(CC)/C(=N\\S(=O)(=O)c1ccc(C)cc1)C(C)(C)C", "Pyricularia oryzae", 0),
    ("Cc1ccc(S(=O)(=O)/N=C(/c2ccccc2)N(C)C)cc1", "Pyricularia oryzae", 30),
    ("CCN(CC)/C(CC(C)C)=N\\S(=O)(=O)c1ccc(C)cc1", "Pyricularia oryzae", 0),
    ("Cc1ccc(S(=O)(=O)/N=C(/c2ccc(Cl)c(Cl)c2)N(C)C)cc1", "Pyricularia oryzae", 50),
    ("C/C(=N/S(=O)(=O)c1ccc(C)cc1)N(C)C", "Pyricularia oryzae", 70),
    ("CCCCCC/C(=N/S(=O)(=O)c1ccc(C)cc1)N(C)C", "Pyricularia oryzae", 70),
    ("Cc1ccc(/C(=N/S(=O)(=O)c2ccc(C)cc2)N(C)C)cc1", "Pyricularia oryzae", 70),
    ("Cc1ccc(S(=O)(=O)/N=C(/C2CCCCC2)N(C)C)cc1", "Pyricularia oryzae", 50),
    ("CCCCCCC/C(=N/S(=O)(=O)c1ccc(C)cc1)N(CC)CC", "Pyricularia oryzae", 90),
    ("CCCCCC/C(=N/S(=O)(=O)c1ccc(C)cc1)N(CCC)CCC", "Pyricularia oryzae", 50),
    ("CCCCCC/C(=N/S(=O)(=O)c1ccc(Cl)cc1)N(CC)CC", "Pyricularia oryzae", 30),
    ("CCC/C(=N/S(=O)(=O)c1ccc(C)cc1)N(C)C", "Pyricularia oryzae", 70),
    ("CCCCCCCCCCCCCCC/C(=N/S(=O)(=O)c1ccc(C)cc1)N(CC)CC", "Pyricularia oryzae", 0),
    ("CCCCCC/C(=N/S(=O)(=O)c1ccc(C)cc1)N1CCOCC1", "Pyricularia oryzae", 30),
    ("Cc1ccc(S(=O)(=O)/N=C(/CC(C)Br)N(C)C)cc1 (centres undefined)", "Pyricularia oryzae", 30),
]
